Please go through the items and note down their viability, T/C.
- Test system: 596521-263-R-J1-PDC complex spheroid growth
- assay: Anticancer human tumor 596521-263-R-J1-PDC patient-derived soft tissue sarcoma cell line growth inhibition [Asc]
- test parameters: second compound 0.1 µM; first compound 0.316 µM; active compounds read low

compound="O=C(c1cc(Cc2n[nH]c(=O)c3ccccc23)ccc1F)N1CCN(C(=O)C2CC2)CC1 + Cc1c(S(C)(=O)=O)c(-c2cc(F)cc(N3CCN(c4ccc(NS(=O)(=O)c5ccc(NC(CCN6CCC(C(=O)OCCCP(=O)(O)O)CC6)CSc6ccccc6)c(S(=O)(=O)C(F)(F)F)c5)cc4)CC3)c2)c(-c2ccc(Cl)cc2)n1C(C)C" measured_endpoint="viability, T/C" reported_measurement=86.4%

Now for a further compound.
Query string: Provide the documented viability, T/C with 596521-263-R-J1-PDC complex spheroid growth as the system for CNC(C)C(=O)NC1CN(S(=O)(=O)c2cccc(S(=O)(=O)N3CCC4CCC(C(=O)NC(c5ccccc5)c5ccccc5)N4C(=O)C(NC(=O)C(C)NC)C3)c2)CCC2CCC(C(=O)NC(c3ccccc3)c3ccccc3)N2C1=O (configuration not stated) + Cc1c(S(C)(=O)=O)c(-c2cc(F)cc(N3CCN(c4ccc(NS(=O)(=O)c5ccc(NC(CCN6CCC(C(=O)OCCCP(=O)(O)O)CC6)CSc6ccccc6)c(S(=O)(=O)C(F)(F)F)c5)cc4)CC3)c2)c(-c2ccc(Cl)cc2)n1C(C)C
Result string: 71.9%

----------
- Test system: 596521-263-R-J1-PDC complex spheroid growth
- assay: Anticancer human tumor 596521-263-R-J1-PDC cell line growth inhibition [Asc]; active = viability on the fitted dose curve at most 10% of control; inactive = the rest;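 further: spheroids exposed to compounds for 7 days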
- test parameters: second compound 0.1 µM; first compound 10 µM
The categories you may choose from are label 1 (active), label 0 (inactive)

Below, 2 molecules whose answers are already recorded.
molecule="C=C(F)C(=O)N1CCN(c2nc(OCC3CCCN3C)nc3c2CCN(c2cccc4cccc(Cl)c24)C3)CC1CC#N (stereo not drawn) + Cc1c(S(C)(=O)=O)c(-c2cc(F)cc(N3CCN(c4ccc(NS(=O)(=O)c5ccc(NC(CCN6CCC(C(=O)OCCCP(=O)(O)O)CC6)CSc6ccccc6)c(S(=O)(=O)C(F)(F)F)c5)cc4)CC3)c2)c(-c2ccc(Cl)cc2)n1C(C)C" cat="label 1"
molecule="C#Cc1c(F)ccc2cc(O)cc(-c3ncc4c(N5CC6CCC(C5)N6)nc(OCC56CCCN5CC(F)C6)nc4c3F)c12 (stereo not drawn) + Cc1c(S(C)(=O)=O)c(-c2cc(F)cc(N3CCN(c4ccc(NS(=O)(=O)c5ccc(NC(CCN6CCC(C(=O)OCCCP(=O)(O)O)CC6)CSc6ccccc6)c(S(=O)(=O)C(F)(F)F)c5)cc4)CC3)c2)c(-c2ccc(Cl)cc2)n1C(C)C" cat="label 0"

Query string: Can you look up the reported call for C=CC(=O)N1CCN(c2nc(=O)n(-c3c(C)ccnc3C(C)C)c3nc(-c4c(O)cccc4F)c(F)cc23)C(C)C1 (stereo not drawn) + Cc1c(S(C)(=O)=O)c(-c2cc(F)cc(N3CCN(c4ccc(NS(=O)(=O)c5ccc(NC(CCN6CCC(C(=O)OCCCP(=O)(O)O)CC6)CSc6ccccc6)c(S(=O)(=O)C(F)(F)F)c5)cc4)CC3)c2)c(-c2ccc(Cl)cc2)n1C(C)C for me?
Result string: label 0

Values compiled from PubChem BioAssay AID1963449.
